system: Rhizoctonia solani; experiment: Antifungal activity against Rhizoctonia solani assessed as growth inhibition at 500 ug/mL by potted plant test; type: functional; conditions: read-out: GI
Quantity Name: inhibition of growth at 500 µg/mL (%)
The reply should be a number in %, with the unit left off.

// solved cases for inhibition of growth at 500 µg/mL follow
>>> observed_result("O=C(N/N=C/c1ccc(-c2ccccc2Cl)o1)c1ccccc1O[C@@H]1O[C@H](CO)[C@@H](O)[C@H](O)[C@H]1O")
33.3
>>> observed_result("COc1ccccc1C(=O)N/N=C/c1ccc(-c2ccc(F)cc2F)o1")
2
>>> observed_result("O=C(N/N=C/c1ccc(-c2ccc(F)cc2F)o1)c1ccccc1S[C@@H]1O[C@H](CO)[C@@H](O[C@@H]2O[C@H](CO)[C@H](O)[C@H](O)[C@H]2O)[C@H](O)[C@H]1O")
10.7

Below: the item to evaluate.
State the recorded inhibition of growth at 500 µg/mL for this entry: "O=C(N/N=C/c1ccc(-c2ccc(F)cc2F)o1)c1ccccc1S[C@@H]1O[C@H](CO)[C@H](O)[C@H](O)[C@H]1O"
24.9
